Assay target: Kynurenine/alpha-aminoadipate aminotransferase, mitochondrial (Homo sapiens, UniProt Q8N5Z0)
Assay explanation: Inhibition of human KAT2 using L-kynurenine as substrate measured every 5 mins for 16 hours by UV-visible spectra analysis
Sequence (Q8N5Z0 30-425 limits assumed): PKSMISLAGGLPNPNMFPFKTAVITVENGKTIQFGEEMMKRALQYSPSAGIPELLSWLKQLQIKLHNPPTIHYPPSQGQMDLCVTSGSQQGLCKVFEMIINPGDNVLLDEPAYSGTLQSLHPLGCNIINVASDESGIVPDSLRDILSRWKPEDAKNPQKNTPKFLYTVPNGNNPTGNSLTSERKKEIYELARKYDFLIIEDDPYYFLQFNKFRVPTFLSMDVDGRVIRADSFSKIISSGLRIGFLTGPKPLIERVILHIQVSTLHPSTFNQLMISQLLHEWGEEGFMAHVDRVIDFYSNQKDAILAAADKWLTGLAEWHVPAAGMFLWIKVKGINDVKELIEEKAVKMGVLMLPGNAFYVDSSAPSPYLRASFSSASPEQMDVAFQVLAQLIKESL

# Test smiles, Kinact [min⁻¹]
records = [
    ("N[C@H]1Cc2nn(-c3ccccc3)cc2N(O)C1=O", 0.0144),
    ("Cn1nc(Cc2ccccc2)c2c1N(O)C(=O)[C@@H](N)C2", 0.0349),
    ("COc1cccc(Cc2nn(C)c3c2C[C@H](N)C(=O)N3O)c1", 0.0116),
    ("N[C@H]1Cc2cn(Cc3ccccc3)nc2N(O)C1=O", 0.0147),
    ("N[C@H]1Cc2c(cnn2Cc2ccccc2)N(O)C1=O", 0.0116),
    ("N[C@H]1Cc2c(c(C(F)(F)F)nn2Cc2ccccc2)N(O)C1=O", 0.0227),
    ("COc1cc2c(cc1Cc1ccccc1)C[C@H](N)C(=O)N2O", 0.0146),
    ("N[C@H]1Cc2cn(-c3ccccc3)nc2N(O)C1=O", 0.0125),
]

---

Assay target: Kynurenine/alpha-aminoadipate aminotransferase, mitochondrial (Homo sapiens, UniProt Q8N5Z0)
IC50 overview

# Test smiles, Unit of measure, IC50
measured = [
    ("COc1cc2c(cc1Cc1ccccc1)C[C@H](N)C(=O)N2O", "µM", 0.037),
    ("N[C@H]1Cc2cn(-c3ccccc3)nc2N(O)C1=O", "µM", 0.025),
    ("N[C@H]1Cc2cn(Cc3ccccc3)nc2N(O)C1=O", "µM", 0.047),
    ("N[C@H]1Cc2c(c(C(F)(F)F)nn2Cc2ccccc2)N(O)C1=O", "µM", 0.074),
    ("N[C@H]1Cc2nn(-c3ccccc3)cc2N(O)C1=O", "µM", 0.085),
]

---

microsomal CLint overview
Assay explanation: Intrinsic apparent clearance in human liver microsomes
Assay type: ADME, Microsome
Particulars: read-out: CLH(app)

# Test smiles, Result operator, microsomal CLint [µL/min/mg]
measured = [
    ("COc1cc2c(cc1Cc1ccccc1)C[C@H](N)C(=O)N2O", "=", 26),
    ("N[C@H]1Cc2cn(-c3ccccc3)nc2N(O)C1=O", "<", 8),
]

---

Assay target: Kynurenine/alpha-aminoadipate aminotransferase, mitochondrial (Homo sapiens)
Assay explanation: Ratio of Kinact to Ki for inhibition of human KAT2
Given measured Ratio, output TRUE if it is greater than or equal to 20000 M⁻¹ s⁻¹ and FALSE if not.

# Test smiles, Assay target, Label value
data = [
    ("N[C@H]1Cc2cn(-c3ccccc3)nc2N(O)C1=O", "Kynurenine/alpha-aminoadipate aminotransferase, mitochondrial (Homo sapiens)", "TRUE"),
    ("N[C@H]1Cc2cn(Cc3ccccc3)nc2N(O)C1=O", "Kynurenine/alpha-aminoadipate aminotransferase, mitochondrial (Homo sapiens)", "FALSE"),
    ("N[C@H]1Cc2c(c(C(F)(F)F)nn2Cc2ccccc2)N(O)C1=O", "Kynurenine/alpha-aminoadipate aminotransferase, mitochondrial (Homo sapiens)", "FALSE"),
    ("N[C@H]1Cc2c(cnn2Cc2ccccc2)N(O)C1=O", "Kynurenine/alpha-aminoadipate aminotransferase, mitochondrial (Homo sapiens)", "FALSE"),
    ("COc1cccc(Cc2nn(C)c3c2C[C@H](N)C(=O)N3O)c1", "Kynurenine/alpha-aminoadipate aminotransferase, mitochondrial (Homo sapiens)", "FALSE"),
    ("Cn1nc(Cc2ccccc2)c2c1N(O)C(=O)[C@@H](N)C2", "Kynurenine/alpha-aminoadipate aminotransferase, mitochondrial (Homo sapiens)", "FALSE"),
    ("N[C@H]1Cc2nn(-c3ccccc3)cc2N(O)C1=O", "Kynurenine/alpha-aminoadipate aminotransferase, mitochondrial (Homo sapiens)", "FALSE"),
    ("COc1cc2c(cc1Cc1ccccc1)C[C@H](N)C(=O)N2O", "Kynurenine/alpha-aminoadipate aminotransferase, mitochondrial (Homo sapiens)", "TRUE"),
]
